# measurement notes: PSAC antagonists in infected red cells, primary screen, cell-based, P. falciparum Indochina, OD700, 2 h (AID 1155);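 further: lysis reports solute entry through the parasite surface anion channel PSAC; channel blockers reduce lysis of infected cells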
# assay context: P. falciparum Indochina infected erythrocytes, osmotic lysis OD700, called active from +8 up or from −8 down
Activity calls are given as the source filed them.
Pick from active, inactive when you respond.

Each molecule tested received a call. Report the one for Cc1ccc(S[C@]2(C(=O)NC3CC3)CC(=O)N(C3Cc4ccccc4C3)[C@@H]2c2ccc(CO)cc2)cc1 .
inactive

Returns: the outcome recorded for CN(C)C(=O)[C@]1(Cc2ccccc2N=[N+]=[N-])N=C(c2ccc(OCCCO)cc2)O[C@@H]1c1ccccc1 in this assay.
active

Could you please tell me the result logged for [N-]=[N+]=NCc1ccccc1[C@H]1OC(c2ccc(OCCCO)cc2)=N[C@@]1(Cc1ccccc1)C(=O)NCc1ccccc1 in this assay?
active

Dear all, I need the recorded test outcome for CCCCCC1=C2CNC(CCC)(C(=O)OC)C=C2C(C)C1=O (stereo not drawn) , thank you.
inactive

Dear colleague, could you share the recorded outcome for CC(C)(C)OC(=O)CC[C@]12N=C(c3ccc(OCCCO)cc3)O[C@H]1c1ccccc1N(CCS(=O)(=O)c1ccccc1)C2=O when you have a moment?
active

# lookup: test call for CCOC(=O)C[C@H]1[C@H](OC(=O)Cc2ccc3c(c2)OCO3)[C@@H](NC(=O)c2ccc3ccccc3c2)c2cc(OCCCO)ccc2N1C(=O)c1ccccc1
inactive

Outcome? COC(=O)C(CC#Cc1ccc2c(c1)[C@]1(C(=O)N2)[C@H](C(=O)O)[C@H]2C(=O)O[C@H](c3ccccc3)[C@H](c3ccccc3)N2[C@@H]1c1ccc(O)cc1)C(=O)OC
inactive

Which outcome was assigned to CN1C(=O)C2C=CC(C(O)C3CC=CCC3)N(NC(=O)OC(C)(C)C)C2C1=O (stereo not drawn) in this test?
inactive

Hello, I am checking results. What call was entered for COCCOC(=O)N1C(=O)[C@@]2(c3cc(C#CCCO)ccc31)[C@H](c1ccc(OCCO)cc1)N1[C@H](c3ccccc3)[C@H](c3ccccc3)OC(=O)[C@H]1[C@@H]2C(=O)N1CCN(c2ncccn2)CC1 ?
inactive

Hi, do you know how CC1CC/C=C\[C@H]2OC34C=CCN(C(C)(C)C)C(=O)[C@H]3N(CCCCCCO)C(=O)[C@@H]4C2C(=O)O1 (stereo partly drawn) came out in this test?
inactive

How was O=C1O[C@@H](c2ccccc2)[C@@H](c2ccccc2)N2[C@@H](c3ccccc3OCCO)[C@]3(C(=O)Nc4ccc(C#CC5=CCCCC5)cc43)[C@@H](C(=O)Nc3nc4ccccc4s3)[C@H]12 classified in this test?
inactive

Answer briefly: the call reported for C[C@]1(C(=O)NC2CC2)c2ccccc2C(=O)N(Cc2cc(C(F)(F)F)cc(C(F)(F)F)c2)[C@H]1c1ccc(CO)cc1 in this assay.
inactive

Which outcome was assigned to CCCC=C(CCC)[C@@H](NS(=O)(=O)c1cccs1)c1ccc(C(=O)OC)cc1 in this test?
inactive

###

# assayed target: Fibroblast growth factor 2 (Homo sapiens) (UniProt P09038)
# Sequence (P09038 whole entry, looked up): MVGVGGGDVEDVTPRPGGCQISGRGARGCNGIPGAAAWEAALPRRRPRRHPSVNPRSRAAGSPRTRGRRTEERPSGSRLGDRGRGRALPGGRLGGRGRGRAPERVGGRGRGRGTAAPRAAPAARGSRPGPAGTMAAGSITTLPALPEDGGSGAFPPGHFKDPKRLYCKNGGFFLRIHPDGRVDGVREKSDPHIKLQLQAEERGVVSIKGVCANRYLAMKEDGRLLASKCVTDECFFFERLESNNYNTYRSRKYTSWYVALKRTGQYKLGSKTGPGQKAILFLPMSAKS
# measurement notes: FGF2 binders on small-molecule microarrays, primary screen, biochemical, small-molecule microarray, 635/667 nm fluorescence (AID 1133)
# assay context: small-molecule microarray binding, FGF2, fluorescence 635/667; higher = more signal
attribute measured: composite z-score
Returns: the value as a bare number; no unit string appended.

Could you tell me which composite z-score is on file for COc1ccc(NN2C(C(O)c3ccc([N+](=O)[O-])cc3)C=CC3C(=O)N(C4CCCCC4)C(=O)C32)cc1 (stereo not drawn) ?
-0.532

Please look up its composite z-score: CN1C(=O)C2C=CC(C(O)c3cccs3)N(Nc3ccccc3)C2C1=O (stereo not drawn)
-0.294

Endpoint output: composite z-score of C#CCNC(=O)[C@H](Cc1ccccc1)NC(=O)CCC(=O)O . Value?
-0.246
